B1: tRNA (parent)
chain: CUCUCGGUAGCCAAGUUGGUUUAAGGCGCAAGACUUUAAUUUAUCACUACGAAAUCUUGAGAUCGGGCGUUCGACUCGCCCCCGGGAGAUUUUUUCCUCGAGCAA

- Variants of: B1
- protocol notes: nonsense suppression (GFP-seq) (ratio to wild type); higher = more function; SUP4oc tRNA, yeast GFP reporter sort-seq
Variants at the floor of the assay were thinned out.
Here, each record is paired with measured nonsense suppression data.

U2C C56U = ≤ 0.026
A14G A60G = 0.0456
U57C G85A = 0.757
C1U U4G C5U A31G C81A = ≤ 0.026
U70G C82G = ≤ 0.026

Would you kindly share the measured nonsense suppression for A60G C75A ? 0.976
